For each of the compounds below, state its Giant foxtail plant response rating (0 to 10 scale).
Test system: giant foxtail
assay comment: Test B pre/postemergence giant foxtail
Format: in vivo, Setaria faberii
condition notes: Preemergence, Rate 125 g/ha; 0 is no effect, 10 is complete control
Answer with a number only.

Problem: Given CC(C)N(C(=O)n1oc(=O)n(C(C)(C)C)c1=O)c1ccccc1 , state its recorded Giant foxtail plant response rating (0 to 10 scale).
Result: 7

Problem: Entry CN(C(=O)n1oc(=O)n(Cc2ccccc2)c1=O)c1ccccc1 please
Result: 0

Problem: Now try CC(C)N(C(=O)n1oc(=O)n([C@@H](C)c2ccccc2)c1=O)c1ccccc1 .
Result: 9

Problem: Also CC(C)N(C(=O)n1oc(=O)n(C)c1=O)c1ccc(Cl)cc1 , if possible.
Result: 9
